These measurements were taken from paper PMC5540273.

System: RSK4(Kin.Dom.1-N-terminal);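 further: KINOMEscan kinase panel screen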
Construct: gene RPS6KA6
Settings: concentration: 1 μM, replicates: in singlicate; n = 1
value kind: %Inh (%)
Give just the numeric value; % need not be written.

These solved cases illustrate the format of a correct answer.
O=c1cc(N2CCOCC2)nc2n(Cc3cccc4ccccc34)ccn12; 0
O=C1NC(=O)C(N2CCc3ccccc32)=C1c1cccc(Cl)c1; 35
O=c1cc(N2CCOCC2)nc2n(Cc3cccc(F)c3)ccn12; 0
Cn1cc(-c2ccc3c(c2)CCN3C(=O)Cc2ccccc2Cl)c2c(N)ncnc21; 0
Nc1nc(-c2ccc3c(N)n[nH]c3c2)cc(N2CCCC2)n1; 0

Request: Using known records, supply %Inh for COc1ccc(S(=O)(=O)NC2CCN(c3cc(C)nc(Nc4cccc(C#N)c4)n3)CC2)cc1.O=C(O)C(F)(F)F
Response: 0

Request: Name the recorded %Inh of the compound listed here: C[C@@H](Oc1cc(-n2cnc3ccc(NC(=O)NC(C)(C)C)cc32)sc1C(N)=O)c1ccccc1Cl
Response: 0

Request: Kindly indicate its recorded %Inh. Item: Cn1ccc2ncnc(Oc3ccc(NC(=O)Nc4ccncc4)c(Cl)c3)c21
Response: 0

Request: Look up and state reported %Inh for O=C1Cc2cc(Nc3nc(NCc4cccc(S(=O)(=O)C(F)(F)F)c4)ncc3C(F)(F)F)ccc2N1
Response: 35

Request: Look up %Inh of COc1cc(Nc2nccc(N3CCC(NC(=O)c4cccc(NC(C)=O)c4)C3)n2)cc(OC)c1OC (stereo not drawn) and report it.
Response: 1
